Molecular target: human ether-à-go-go-related gene (hERG) potassium channel (human);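 also: peak tail current of the secondary pulse compared with the same well before compound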
Sequence (Q12809 whole entry, looked up): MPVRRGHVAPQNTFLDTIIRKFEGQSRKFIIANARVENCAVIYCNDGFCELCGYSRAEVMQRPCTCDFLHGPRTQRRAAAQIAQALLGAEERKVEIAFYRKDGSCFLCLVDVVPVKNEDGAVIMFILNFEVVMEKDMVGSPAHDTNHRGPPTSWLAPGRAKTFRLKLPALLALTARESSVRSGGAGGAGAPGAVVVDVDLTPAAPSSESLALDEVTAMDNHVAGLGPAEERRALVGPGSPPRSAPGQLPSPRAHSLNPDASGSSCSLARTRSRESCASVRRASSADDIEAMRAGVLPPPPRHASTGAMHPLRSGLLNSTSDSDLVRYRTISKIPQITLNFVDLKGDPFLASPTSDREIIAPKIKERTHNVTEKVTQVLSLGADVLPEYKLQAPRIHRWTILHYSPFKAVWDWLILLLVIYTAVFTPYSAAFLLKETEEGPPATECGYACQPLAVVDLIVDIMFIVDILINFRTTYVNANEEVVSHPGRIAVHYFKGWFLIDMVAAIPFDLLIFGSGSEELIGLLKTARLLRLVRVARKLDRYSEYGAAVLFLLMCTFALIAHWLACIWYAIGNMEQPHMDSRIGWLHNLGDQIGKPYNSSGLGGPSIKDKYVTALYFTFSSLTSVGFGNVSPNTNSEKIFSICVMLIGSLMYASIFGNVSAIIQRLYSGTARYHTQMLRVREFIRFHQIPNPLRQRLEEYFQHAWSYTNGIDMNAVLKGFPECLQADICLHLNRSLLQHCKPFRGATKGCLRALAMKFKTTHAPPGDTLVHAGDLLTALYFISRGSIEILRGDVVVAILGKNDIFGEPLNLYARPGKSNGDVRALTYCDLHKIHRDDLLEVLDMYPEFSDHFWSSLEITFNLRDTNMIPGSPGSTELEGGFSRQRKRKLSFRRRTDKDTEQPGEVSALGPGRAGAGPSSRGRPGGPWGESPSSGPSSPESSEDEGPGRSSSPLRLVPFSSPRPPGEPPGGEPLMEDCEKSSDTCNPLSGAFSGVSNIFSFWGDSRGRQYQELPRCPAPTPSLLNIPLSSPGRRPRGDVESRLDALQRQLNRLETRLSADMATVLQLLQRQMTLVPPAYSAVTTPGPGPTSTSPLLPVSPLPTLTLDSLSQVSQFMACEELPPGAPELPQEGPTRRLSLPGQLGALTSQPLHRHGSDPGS
Test: primary screen, population patch clamp on CHO cells stably expressing hERG; higher = less effect of the substance
Hit rate of the full screen: of about 310,000 compounds, about 14,000 (4.5%) showed an effect of 50% or more. The effect is printed as a negative number. Shown is part of a subset that was picked to be rich in strong results.
TEST_READOUT: hERG current change (%, negative = inhibition) at 10uM (%)
Unit % implied. Number only.

Retrieve hERG current change (%, negative = inhibition) at 10uM measured for Cc1sc2ncnc(N3CCC(C(=O)NNC(=O)COc4ccccc4F)CC3)c2c1C and print it.
-57

Retrieve hERG current change (%, negative = inhibition) at 10uM measured for CC(OC(=O)/C=C/c1ccco1)C(=O)NC1CCCCC1C (centres unmarked) and print it.
-3.2

Retrieve hERG current change (%, negative = inhibition) at 10uM measured for Cc1sc2ncnc(N3CCC(C(=O)Nc4ccc(Cl)c(Cl)c4)CC3)c2c1C and print it.
-7.26

Retrieve hERG current change (%, negative = inhibition) at 10uM measured for Cc1sc2ncnc(N3CCC(C(=O)NNC(=O)COc4ccccc4Cl)CC3)c2c1C and print it.
-38.6

Retrieve hERG current change (%, negative = inhibition) at 10uM measured for Cc1ccc(NC2CCCN(C(=O)c3cnc4ccccn4c3=O)C2)cc1C (centres unmarked) and print it.
-3.33

Retrieve hERG current change (%, negative = inhibition) at 10uM measured for COc1cc(CN2CCC(n3nccc3NC(=O)c3ccccc3OC)CC2)ccc1F and print it.
-76.7

Retrieve hERG current change (%, negative = inhibition) at 10uM measured for O=C(Nc1cc2ccccc2oc1=O)c1ccccc1 and print it.
22.7

Retrieve hERG current change (%, negative = inhibition) at 10uM measured for COc1cc(CN2CCC(n3nccc3NC(=O)C3CCOC3)CC2)ccc1F (centres unmarked) and print it.
-6.78

Retrieve hERG current change (%, negative = inhibition) at 10uM measured for O=C(CNC(=O)c1ccc(Cl)cc1)c1ccccc1 and print it.
-9.6

Retrieve hERG current change (%, negative = inhibition) at 10uM measured for COc1ccccc1C(=O)Nc1ccnn1C1CCN(Cc2ccn[nH]2)CC1 and print it.
-36.1

Retrieve hERG current change (%, negative = inhibition) at 10uM measured for COc1ccccc1C(=O)Nc1ccnn1C1CCN(Cc2ncc[nH]2)CC1 and print it.
-16.3

Retrieve hERG current change (%, negative = inhibition) at 10uM measured for COc1ccc(C(=O)Nc2ccnn2C2CCN(Cc3ccccn3)CC2)cc1 and print it.
5.54

Retrieve hERG current change (%, negative = inhibition) at 10uM measured for COc1ccc(C(=O)Nc2ccnn2C2CCN(Cc3ccc4nonc4c3)CC2)cc1 and print it.
-43.1

Retrieve hERG current change (%, negative = inhibition) at 10uM measured for CCN(CC)CCN(C(=O)c1cccc([N+](=O)[O-])c1)c1nc2ccc(OC)cc2s1.Cl and print it.
-39.1

Retrieve hERG current change (%, negative = inhibition) at 10uM measured for Cc1c(C(=O)NC2CCCCC2)sc2ncnc(N3CCN(c4ccccc4)CC3)c12 and print it.
13.7

Retrieve hERG current change (%, negative = inhibition) at 10uM measured for COCCCNC(=O)CN(c1ccc(Cl)c(Cl)c1)S(C)(=O)=O and print it.
-10.9

Retrieve hERG current change (%, negative = inhibition) at 10uM measured for COc1ccccc1OCC(=O)NNC(=O)C1CCN(c2ncnc3sc(C)c(C)c23)CC1 and print it.
10.5

Retrieve hERG current change (%, negative = inhibition) at 10uM measured for CC(C)[C@H](Nc1ccc(C(F)(F)F)cc1[N+](=O)[O-])C(=O)O.[Cl-] and print it.
20

Retrieve hERG current change (%, negative = inhibition) at 10uM measured for CCN(CCO)c1nc(N2CCCCC2)c2cnn(C)c2n1 and print it.
3.12

Retrieve hERG current change (%, negative = inhibition) at 10uM measured for O=C(CSc1nnc(-c2cccnc2)n1Cc1ccccc1)NCc1ccccc1 and print it.
-14.1
